target.entity: T1, Abz-LAETGK(Dnp)-CONH2
T1 chain: LAETGK
Catalogue of specificity (relative cat. Efficiency, fold), LAETG over LPETG readings, one per entry.
Quick note: unit goes after the number.

protein	result
eSrtA(2A-6) (protein) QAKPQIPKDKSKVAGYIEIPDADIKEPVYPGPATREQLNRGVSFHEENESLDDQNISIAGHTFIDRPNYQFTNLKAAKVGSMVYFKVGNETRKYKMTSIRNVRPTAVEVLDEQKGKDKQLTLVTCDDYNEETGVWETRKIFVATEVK	86.4 fold

query: Requested read-out: specificity (relative cat. Efficiency, fold), LAETG over LPETG. Entry: eSrtA(2A-4) (protein) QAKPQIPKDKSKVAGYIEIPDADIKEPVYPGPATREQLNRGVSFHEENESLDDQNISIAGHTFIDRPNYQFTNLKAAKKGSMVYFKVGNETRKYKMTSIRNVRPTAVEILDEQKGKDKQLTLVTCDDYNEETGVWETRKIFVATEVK
result: 73 fold

query: Requested read-out: specificity (relative cat. Efficiency, fold), LAETG over LPETG. Entry: 2A.6C (protein) QAKPQIPKDKSKVAGYIEIPDADIKEPVYPGPATREQLNRGVSFHEENESLDDQNISIAGHTFIDRPNYQFTNLKAAKPGSMVYFKVGNETRIYKMTSIRKVRPTAVEVLDEQKGKDKQLTLVTCDDYNEETGVWETRKIFVATEVK
result: 61.6 fold

query: Requested read-out: specificity (relative cat. Efficiency, fold), LAETG over LPETG. Entry: eSrtA(2A-5) (protein) QAKPQIPKDKSKVAGYIEIPDADIKEPVYPGPATREQLNHGVSFHEENESLDDQNISIAGHTFIDRPNYQFTNLKAAKIGSMVYFKVGNETRKYKMTSIRNVRPTAVEVLDEQKGKDKQLTLVTCDDYNEETGVWETRKIFVATEVK
result: 116 fold
